The reader will find reported IC50 values listed item by item below.
System: 439559-082-T-J2-PDC complex spheroid growth;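 note: spheroids exposed to agents for 7 days starting day 3 after seeding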
protocol details: Anticancer human tumor 439559-082-T-J2-PDC patient-derived colon adenocarcinoma cell line growth inhibition [Asc]
particulars: curve of first compound; second compound 1 µM
The reply should contain only the number, in nM.

Some molecules with recorded IC50:
* C#Cc1c(F)ccc2cc(O)cc(-c3ncc4c(N5CC6CCC(C5)N6)nc(OCC56CCCN5CC(F)C6)nc4c3F)c12 (configuration not stated) + Cc1c(S(C)(=O)=O)c(-c2cc(F)cc(N3CCN(c4ccc(NS(=O)(=O)c5ccc(NC(CCN6CCC(C(=O)OCCCP(=O)(O)O)CC6)CSc6ccccc6)c(S(=O)(=O)C(F)(F)F)c5)cc4)CC3)c2)c(-c2ccc(Cl)cc2)n1C(C)C | 679
* O=C(c1ccc(F)c(F)c1Nc1ccc(I)cc1F)N1CC(O)([C@@H]2CCCCN2)C1 + CNC(C)C(=O)NC1CN(S(=O)(=O)c2cccc(S(=O)(=O)N3CCC4CCC(C(=O)NC(c5ccccc5)c5ccccc5)N4C(=O)C(NC(=O)C(C)NC)C3)c2)CCC2CCC(C(=O)NC(c3ccccc3)c3ccccc3)N2C1=O | 124

Here is the next item to consider.
Note to self: IC50 recorded for C=C(F)C(=O)N1CCN(c2nc(OCC3CCCN3C)nc3c2CCN(c2cccc4cccc(Cl)c24)C3)CC1CC#N (configuration not stated) + CNC(C)C(=O)NC1CN(S(=O)(=O)c2cccc(S(=O)(=O)N3CCC4CCC(C(=O)NC(c5ccccc5)c5ccccc5)N4C(=O)C(NC(=O)C(C)NC)C3)c2)CCC2CCC(C(=O)NC(c3ccccc3)c3ccccc3)N2C1=O was 2560
